# assay_notes: Experimental lipophilicity, shake-flask n-octanol/water
# Type: physicochemical
# experimental_context: n-octanol/water (50 mM MOPS buffer); n-octanol/50 mM MOPS buffer pH 7.4, 25±1 °C; mean±SD of three; read-out: Log D oct,7.4
recorded_endpoint: logD
Give the figure by itself; no unit, no explanation.

stdin: For the compound COc1ccc(Br)c(N(C)CCNC(C)=O)c1 [Compound 19] , report logD.
stdout: 1.85

---

# assay_notes: In vivo pharmacokinetic study in rat plasma
# Design: species or system Sprague‐Dawley rats
# experimental_context: male, Sprague-Dawley; rat plasma, IV bolus 5 mg kg^−1
recorded_endpoint: half-life
Show the value, then the unit it is measured in.

stdin: Consider the compound COc1cccc(N(CCNC(C)=O)c2cccc(CO)c2)c1 . State its measured half-life.
stdout: 11.5 min

---

# assay_notes: Metabolic stability in rat liver microsomes
# Assay type: in vitro ADME
# experimental_context: rat liver microsomes 1 mg protein/mL, 5 μM compound, 37 °C; mean±SD
Label scheme for CLi Rat LM (intrinsic clearance): lower than 60 μL min^−1 mg prot^−1 is False, 60 μL min^−1 mg prot^−1 and above is True.

stdin: Assess whether reported CLi Rat LM (intrinsic clearance) for COc1cccc(N(CCNC(C)=O)c2cccc(O)c2)c1 sits at 60 μL min^−1 mg prot^−1 or higher.
stdout: True

stdin: Dear colleague, could you confirm whether COc1cccc(N(CCNC(C)=O)c2cccc(CO)c2)c1 has CLi Rat LM (intrinsic clearance) at or above 60 μL min^−1 mg prot^−1?
stdout: True

stdin: Evaluate COc1cccc(N(CCNC(C)=O)c2ccccc2)c1 [Compound 2, reference compound] : CLi Rat LM (intrinsic clearance) at minimum 60 μL min^−1 mg prot^−1?
stdout: True

stdin: // inclusive: CLi Rat LM (intrinsic clearance) at least 60 μL min^−1 mg prot^−1? input: COc1cccc(N(CCNC(C)=O)CCc2ccccc2)c1
stdout: True

stdin: Does CCNC(=O)NCCN(c1ccccc1)c1cccc(OC)c1 have a reported CLi Rat LM (intrinsic clearance) of at least 60 μL min^−1 mg prot^−1?
stdout: True

stdin: Decide: is the reported value of CLi Rat LM (intrinsic clearance) for COc1cccc(N(CCNC(C)=O)c2ccsc2)c1 equal to or greater than 60 μL min^−1 mg prot^−1?
stdout: True

stdin: Confirm if CLi Rat LM (intrinsic clearance) reported for the compound COc1ccc(Br)c(N(C)CCNC(C)=O)c1 is 60 μL min^−1 mg prot^−1 or above.
stdout: False

stdin: Dear colleague, could you confirm whether CC(=O)NCCN(c1ccc(F)cc1)c1cccc(Br)c1 [Compound 3, reference compound] has CLi Rat LM (intrinsic clearance) at or above 60 μL min^−1 mg prot^−1?
stdout: False

stdin: In plain terms: is recorded CLi Rat LM (intrinsic clearance) at least 60 μL min^−1 mg prot^−1 for CC(=O)NCCN(c1ccc(F)cc1)c1cccc(C(F)F)c1 ?
stdout: False

stdin: Dear colleague, could you confirm whether COc1ccc(-c2ccccc2)c(N(C)CCNC(C)=O)c1 has CLi Rat LM (intrinsic clearance) at or above 60 μL min^−1 mg prot^−1?
stdout: True

stdin: Is reported CLi Rat LM (intrinsic clearance) greater than or equal to 60 μL min^−1 mg prot^−1 here: CCCNC(=O)NCCN(c1ccccc1)c1cccc(OC)c1
stdout: True

stdin: Textbook exercise: given the entry COc1cccc(N(CCNC(N)=O)c2ccccc2)c1 , state whether its CLi Rat LM (intrinsic clearance) is greater than or equal to 60 μL min^−1 mg prot^−1.
stdout: False

---

What solubility was measured for each of the following?
# assay_notes: Thermodynamic solubility, shake flask method
# Format: physicochemical
# experimental_context: buffer pH 7.4, aqueous buffer, thermodynamic from solid, pH 7.4 buffer, room temperature overnight, mean±SD, triplicate, read-out: Solubility pH 7.4
Write the answer as a number in µg/mL, unit excluded.

stdin: Specify solubility for COc1cccc(N(CCNC(C)=O)CCc2ccccc2)c1 [Compound 12] and stop.
stdout: 110

stdin: Annotate the compound CCCNC(=O)NCCN(c1ccccc1)c1cccc(OC)c1 [Compound 6 c] with its measured solubility.
stdout: 14.3

stdin: Let me know recorded solubility for COc1cccc(N(CCNC(C)=O)c2ccncc2)c1 [Compound 13] , thanks.
stdout: 1020

---

# assay_notes: Thermodynamic solubility, shake flask method
# Type: physicochemical
# experimental_context: buffer pH 1.0, simulated gastric fluid, thermodynamic from solid, pH 1.0 buffer, room temperature overnight, mean±SD, triplicate, read-out: Solubility pH 1.0
recorded_endpoint: solubility (µg/mL)
# number only, unit µg/mL dropped from output

stdin: For CCNC(=O)NCCN(c1ccccc1)c1cccc(OC)c1 [Compound 6 b] , write its solubility.
stdout: 14.9

stdin: Determine from records and report solubility for COc1cccc(N(CCNC(N)=O)c2ccccc2)c1 [Compound 6 a]
stdout: 364

stdin: Identify solubility associated with the compound CC(=O)NCCN(c1ccc(F)cc1)c1cccc(Br)c1 [Compound 3, reference compound]
stdout: 6.9

stdin: Specify solubility for COc1cccc(N(CCNC(C)=O)c2cccc(O)c2)c1 [Compound 15] and stop.
stdout: 95.9
